# Measured On: insect ecdysteroid receptor (EcR) (Spodoptera frugiperda, UniProt Q8MWR2)
# Construct: To an Sf-9 cell suspension (400 μL; (2.0–3.0) × 10^6 cells/mL) in a disposable culture tube; endogenous in cells; host or cells: Sf-9 cells
# Sequence (Q8MWR2 1-403): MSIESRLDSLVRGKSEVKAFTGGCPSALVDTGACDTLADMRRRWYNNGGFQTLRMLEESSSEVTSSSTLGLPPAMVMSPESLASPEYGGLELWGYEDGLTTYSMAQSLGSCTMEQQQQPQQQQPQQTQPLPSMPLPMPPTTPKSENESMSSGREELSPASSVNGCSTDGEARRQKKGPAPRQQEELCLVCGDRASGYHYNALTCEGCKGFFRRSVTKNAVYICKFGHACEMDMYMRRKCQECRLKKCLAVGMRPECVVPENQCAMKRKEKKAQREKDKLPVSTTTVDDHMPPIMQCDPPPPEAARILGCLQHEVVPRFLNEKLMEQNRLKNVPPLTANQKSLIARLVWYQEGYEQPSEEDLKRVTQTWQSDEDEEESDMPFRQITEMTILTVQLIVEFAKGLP
# Protocol Summary: EcR binding assay ([3H]PonA displacement in Sf-9 cells)
# Condition Info: IC50, EcR binding, inhibition of [3H]PonA binding, Sf-9 cells
pIC50: −log10 of the molar value.

- Smiles Text: "CC(C)CCC(=O)[C@](C)(O)[C@H]1CC[C@@]2(O)C3=CC(=O)[C@@H]4C[C@@H](O)[C@@H](O)C[C@]4(C)C3=CC[C@]12C"
  pIC50: 6.42
